system: mouse GIP receptor (mGIPr) (Mus musculus, UniProt Q0P543)
Construct: expressed in transfected cells; host or cells: HEK293s or CHO cells
Sequence (Q0P543 19-460): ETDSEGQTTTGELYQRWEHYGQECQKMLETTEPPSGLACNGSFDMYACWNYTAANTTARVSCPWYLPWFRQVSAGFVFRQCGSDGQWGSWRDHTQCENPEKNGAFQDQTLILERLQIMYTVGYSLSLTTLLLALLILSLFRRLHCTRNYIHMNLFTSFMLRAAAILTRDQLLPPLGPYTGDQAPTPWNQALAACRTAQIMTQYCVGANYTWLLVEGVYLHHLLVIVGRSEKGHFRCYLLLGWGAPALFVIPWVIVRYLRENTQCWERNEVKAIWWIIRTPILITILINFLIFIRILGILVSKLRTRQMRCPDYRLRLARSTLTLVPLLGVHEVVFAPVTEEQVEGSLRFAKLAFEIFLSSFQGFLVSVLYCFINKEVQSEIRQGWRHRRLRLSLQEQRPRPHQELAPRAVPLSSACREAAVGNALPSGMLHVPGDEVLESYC
assay overview: BSA-cAMP assay, cells expressing mouse GIP receptor
Type: cell-based
assay conditions: Batch 1; BSA-cAMP assay; read-out: mGIPr cAMP activity EC50
pEC50: −log10 of the molar value.
endpoint name: pEC50

// below: answered substances
[[record]]
substance = "IP342 (YSEGTFTSDYSAAAEAAAAAAFAAWLAAAAGGGGGSGGGGSGGGGSGGGGSACPPC)"
endpoint_name = "pEC50"
assay_value = 7.37

[[record]]
substance = "IP386 (YSEGTFISDYSIAMDKIHQQDFVNWLLAQKGGGGGSGGGGSGGGGSGGGGSACPPC)"
endpoint_name = "pEC50"
assay_value = 10.52

[[record]]
substance = "IP395 (YSEGTFTSDYSKLLERQAIDEFIAHLLKGGGGGGGSGGGGSGGGGSGGGGSACPPC)"
endpoint_name = "pEC50"
assay_value = 8.48


I: IP413: Fc fusion, IgG1-TM, SEQ ID NO:388; agonist peptide YSEGTFTSDYSKLLEEEASRLFIEWLLAGG (YSEGTFTSDYSKLLEEEASRLFIEWLLAGGGGGGSGGGGSGGGGSGGGGSATHTCPPC)
II: IP299: Fc fusion, IgG1-TM(ΔK), SEQ ID NO:351; agonist peptide YSEGTFISDYSKLLEEEAVRDFVEWLKAGG (YSEGTFISDYSKLLEEEAVRDFVEWLKAGGGGGGGSGGGGSGGGGSGGGGSATHTCPPC)
Exam item: Exercise: compare I and II ; which one has the greater pEC50? Your answer should be the label attached to the chosen record.
Marked response: I
(I: 8.43, II: 6.68)
